Hello, the source for this data is ChEMBL document CHEMBL4152250, in case you need it.

tested on: Staphylococcus epidermidis; test: Antibacterial activity against Staphylococcus epidermidis NCIM 5270 after 12 hrs by serial dilution method; assay type: functional, organism-based; conditions: NCIM 5270, 12 h
Numbered stars: 1 amine (or outer) side, 2 acyl side, 3 side chain; on linkers, the order of the positions; unused ones are H or OH. Square brackets hold non-standard residues; d marks the D form. Peptide text beside a SMILES is read from it. Pro(N-(CH2)3Gua,cis-4-NH-) = N=C(N)NCCCN1C[C@@H](N[*:1])C[C@H]1C(=O)[*:2]; X1 = NCCCN1C[C@@H](N[*:1])C[C@H]1C(=O)[*:2]; βAla = NCCC(=O)O
Mark YES only for MIC values smaller than 6 µM; exact matches and larger values are NO.

Some entries whose results are on file:
{"compound": "CC(=O)N[C@@H](Cc1ccccc1)C(=O)NCC(=O)N[C@H]1C[C@@H](C(=O)N[C@@H](CCCCN)C(=O)N[C@@H](CCCCN)C(=O)N[C@@H](CCCNC(=N)N)C(=O)N[C@H]2C[C@@H](C(=O)N[C@@H](CCC(N)=O)C(=O)N[C@@H](CCCNC(=N)N)C(=O)N[C@@H](CCCNC(=N)N)C(=O)N[C@H]3C[C@@H](C(=O)NCCC(N)=O)N(CCCN)C3)N(CCCN)C2)N(CCCN)C1 (Ac-FG[X1]KKR[X1]QRR[X1][βAla]-NH2)", "assigned.category": "NO"}
{"compound": "CC(=O)N[C@@H](Cc1ccccc1)C(=O)NCC(=O)N[C@@H](CCCNC(=N)N)C(=O)N[C@@H](CCCCN)C(=O)N[C@@H](CCCCN)C(=O)N[C@H]1C[C@@H](C(=O)N[C@@H](CCCNC(=N)N)C(=O)N[C@@H](CCC(N)=O)C(=O)N[C@@H](CCCNC(=N)N)C(=O)N[C@@H](CCCNC(=N)N)C(=O)N[C@@H](CCCNC(=N)N)C(=O)NCCC(N)=O)N(CCCNC(=N)N)C1 (Ac-FGRKK[Pro(N-(CH2)3Gua,cis-4-NH-)]RQRRR[βAla]-NH2)", "assigned.category": "NO"}
{"compound": "CC(=O)N[C@@H](Cc1ccccc1)C(=O)NCC(=O)N[C@H]1C[C@@H](C(=O)N[C@@H](CCCCN)C(=O)N[C@@H](CCCCN)C(=O)N[C@@H](CCCNC(=N)N)C(=O)N[C@H]2C[C@@H](C(=O)N[C@@H](CCC(N)=O)C(=O)N[C@@H](CCCNC(=N)N)C(=O)N[C@@H](CCCNC(=N)N)C(=O)N[C@H]3C[C@@H](C(=O)NCCC(N)=O)N(CCCNC(=N)N)C3)N(CCCNC(=N)N)C2)N(CCCNC(=N)N)C1 (Ac-FG[Pro(N-(CH2)3Gua,cis-4-NH-)]KKR[Pro(N-(CH2)3Gua,cis-4-NH-)]QRR[Pro(N-(CH2)3Gua,cis-4-NH-)][βAla]-NH2)", "assigned.category": "NO"}
{"compound": "CC(=O)N[C@@H](Cc1ccccc1)C(=O)NCC(=O)N[C@@H](CCCNC(=N)N)C(=O)N[C@@H](CCCCN)C(=O)N[C@@H](CCCCN)C(=O)N[C@@H](CCCNC(=N)N)C(=O)N[C@@H](CCCNC(=N)N)C(=O)N[C@@H](CCC(N)=O)C(=O)N[C@@H](CCCNC(=N)N)C(=O)N[C@@H](CCCNC(=N)N)C(=O)N[C@H]1C[C@@H](C(=O)NCCC(N)=O)N(CCCNC(=N)N)C1 (Ac-FGRKKRRQRR[Pro(N-(CH2)3Gua,cis-4-NH-)][βAla]-NH2)", "assigned.category": "YES"}
{"compound": "CC(=O)N[C@@H](Cc1ccccc1)C(=O)NCC(=O)N[C@H]1C[C@@H](C(=O)N[C@@H](CCCCN)C(=O)N[C@@H](CCCCN)C(=O)N[C@@H](CCCNC(=N)N)C(=O)N[C@H]2C[C@@H](C(=O)N[C@@H](CCC(N)=O)C(=O)N[C@H]3C[C@@H](C(=O)N[C@@H](CCCNC(=N)N)C(=O)N[C@H]4C[C@@H](C(=O)NCCC(N)=O)N(CCCNC(=N)N)C4)N(CCCNC(=N)N)C3)N(CCCNC(=N)N)C2)N(CCCNC(=N)N)C1", "assigned.category": "YES"}

From here, focus on the item given below.
Problem: For the compound `CC(=O)N[C@@H](Cc1ccccc1)C(=O)NCC(=O)N[C@@H](CCCNC(=N)N)C(=O)N[C@@H](CCCCN)C(=O)N[C@@H](CCCCN)C(=O)N[C@@H](CCCNC(=N)N)C(=O)N[C@@H](CCCNC(=N)N)C(=O)N[C@@H](CCC(N)=O)C(=O)N[C@@H](CCCNC(=N)N)C(=O)N[C@@H](CCCNC(=N)N)C(=O)N[C@@H](CCCNC(=N)N)C(N)=O` , is MIC under 6 µM?
YES
